B1: peptide HD2 (from tick evasin EVA4) / CXCL13 (biotinylated, synthetic) (parent)
chain 1: EEDDYTAYAPLTCYFT
chain 2: VLEVYYTSLRCRCVQESSVFIPRRFIDRIQILPRGNGCPRKEIIVWKKNKSIVCVDPQAEWIQRMMEVLRKRSSSTLPVPVFKRKIP

Variants of: B1
Settings: with CXCL13 (biotinylated, synthetic); scale: log2
Here the recorded enrichment is given for each entry.

mutationNotation | enrichment
chain 1 Y8P | -6.64
chain 1 T12E | -6.73
chain 1 A9C | -8.86
chain 1 P10T | -6.64
chain 1 Y14G | -9.28
chain 1 C13F | -7.4
chain 1 Y8R | -6.96
chain 1 F15K | -5.78
chain 1 Y8C | -8.46
chain 1 C13G | -9.21
chain 1 Y14L | -9.26
chain 1 D4K | -5.65
chain 1 E2K | -3.92
chain 1 Y14P | -7.63
chain 1 P10I | -7.21
chain 1 P10F | -8.19
chain 1 P10Q | -5.17
chain 1 Y14D | -6.3
chain 1 D4C | -8.01
chain 1 L11G | -9.02
chain 1 D3R | -6.23
chain 1 E2C | -8.79
chain 1 A9K | -5.4
chain 1 Y5K | -4.37
chain 1 D4R | -5.86
chain 1 Y14N | -5.67
chain 1 D3C | -8.67
chain 1 Y14A | -8.81
chain 1 P10C | -8.5
chain 1 Y14R | -8.87
chain 1 D3H | -5.74
chain 1 Y14Q | -6.82
chain 1 A7C | -8.62
chain 1 F15D | -7.37
chain 1 Y5C | -7.94
chain 1 D3K | -4.13
chain 1 F15H | -6.08
chain 1 P10K | -5.74
chain 1 L11P | -6.87
chain 1 C13K | -7.9
chain 1 T12K | -6.36
chain 1 C13R | -9.32
chain 1 Y14K | -6.94
chain 1 Y14S | -8.45
chain 1 Y5R | -5.82
chain 1 A9D | -7

Taken from paper PMC11969024.
